Test: Half life (5 mg/kg) when administered intravenously
Assay type: ADME, organism-based
Details: in vivo, iv
assayReadout: half-life

Tell me the measured half-life of Cc1ccccc1C(NC(=O)CN1C[C@H](c2ccc3c(c2)OCO3)[C@@H](C(=O)O)[C@@H]1c1ccc(OCCOC(C)C)cc1)c1ccccc1C.O=C(O)C(F)(F)F (stereo in doubt; form 1) , please. 1.8 h

Now for another entry.
Tell me the measured half-life of COCCOc1ccc([C@H]2[C@H](C(=O)O)[C@@H](c3ccc4c(c3)OCO4)CN2CC(=O)NC(c2ccccc2C)c2ccccc2C)cc1.O=C(O)C(F)(F)F (stereo in doubt; form 2) , please. 2.9 h
